For EGFR (UniProt P00533), measured IC50 is reported for the entries below.

Some solved entries appear below for comparison.
[[record]]
chemical_string = "COc1cc(Nc2ncnc(-n3c(NCc4cccs4)nc4ccccc43)n2)cc(OC)c1OC"
value_type = "IC50"
reported_result = "0.4 to 2.4 µg/mL"

[[record]]
chemical_string = "COc1cc(Nc2ncnc(Nc3cccc(C)c3)n2)cc(OC)c1OC"
value_type = "IC50"
reported_result = "< 0.4 µg/mL"

[[record]]
chemical_string = "CCOC(=O)Cc1ccc(Nc2ncnc(Nc3cc(-c4ccco4)n[nH]3)n2)cc1"
value_type = "IC50"
reported_result = "0.4 to 2.4 µg/mL"

[[record]]
chemical_string = "CCc1cccc(Nc2ncnc(-n3c(N)nc4ccccc43)n2)c1"
value_type = "IC50"
reported_result = "0.4 to 2.4 µg/mL"

[[record]]
chemical_string = "COc1ccc(Nc2ncnc(Nc3cc(OC)c(OC)c(OC)c3)n2)cc1O"
value_type = "IC50"
reported_result = "< 0.4 µg/mL"

[[record]]
chemical_string = "Cc1ccc2c(c1)CCCN2c1ncnc(NCCc2c[nH]c3ccccc23)n1"
value_type = "IC50"
reported_result = "> 4.5 µg/mL"

[[record]]
chemical_string = "COc1cc(Nc2ncnc(Nc3ccc(NCc4ccccc4)cc3)n2)cc(OC)c1OC"
value_type = "IC50"
reported_result = "> 4.5 µg/mL"

[[record]]
chemical_string = "COc1cc(Nc2ncnc(N(CC(=O)OC(C)(C)C)c3ccc(Cl)cc3)n2)cc(OC)c1OC"
value_type = "IC50"
reported_result = "0.4 to 2.4 µg/mL"

[[record]]
chemical_string = "CN(c1cccc(Cl)c1)c1ncnc(Nc2ccncc2)n1"
value_type = "IC50"
reported_result = "< 0.4 µg/mL"

[[record]]
chemical_string = "COc1cc(Nc2ncnc(-c3cccnc3Cl)n2)cc(OC)c1OC"
value_type = "IC50"
reported_result = "> 4.5 µg/mL"


Problem: Let me know recorded IC50 for COc1cc(Nc2ncnc(Nc3ccc(N4CCOCC4)cc3)n2)cc(OC)c1OC , thanks.
Solution: > 4.5 µg/mL

Problem: Determine its reported IC50: N#Cc1cccc(Nc2ncnc(-n3c(=O)[nH]c4ccccc43)n2)c1
Solution: > 4.5 µg/mL

Problem: Please report IC50 for the following compound: COc1cc(Nc2ncnc(-n3c(NCc4ccccn4)nc4ccccc43)n2)cc(OC)c1OCCn1ccnn1
Solution: > 4.5 µg/mL

Problem: Input Nc1nc2ccccc2n1-c1ncnc(Nc2ccc(Cl)c(Cl)c2)n1 , output reported IC50.
Solution: 0.4 to 2.4 µg/mL

Problem: Provide measured IC50 value, entry: COc1cc(Nc2ncnc(Nc3nnc(-c4ccccc4)[nH]3)n2)cc(OC)c1OC
Solution: > 4.5 µg/mL

Problem: Give reported IC50 value for CN(c1cccc(Cl)c1)c1ncnc(Nc2cc(Cl)c(Cl)c(Cl)c2)n1
Solution: > 4.5 µg/mL
